src = patent US20170253656A1

- target system: T1, hu-CD74 antigen (R&D SYSTEMS catalog #3590-CD-050) (human, UniProt P04233-2 73-232, limits assumed)
- T1 construct: Bought antigen; also called rhCD74; human CD74
- T1 sequence (looked up): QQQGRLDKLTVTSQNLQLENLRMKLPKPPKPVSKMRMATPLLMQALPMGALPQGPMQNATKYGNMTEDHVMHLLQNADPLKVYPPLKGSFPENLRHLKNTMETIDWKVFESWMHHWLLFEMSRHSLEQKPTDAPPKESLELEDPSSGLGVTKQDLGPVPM
- test: SPR (Biacore T200), IgG captured on anti-human Fc, rhCD74 analyte
Below, each of the binders is paired with its reported koff value.
outcome measure: koff (s⁻¹)

HC 1251_A06 (g)/LC 1337_A07 (wt) (antibody, human IgG1, kappa, V domains shown, IgG format) VH: QVQLVESGGGVVQPGRSLRLSCAASGFDFSSYGMHWVRQAPGKGLEWVAVIWDDGSDRYYADSVKGRFTISRDNSKNTLYLQMNSLRAEDTAVYYCARGGTRVLGAIHGTDVWGQGTTVTVSS VL: DIQMTQSPSSLSASVGDRVTITCRASQGISSWVAWYQQKPEKAPKSLIYGASRLQSGVPSRFSGSGSGTDFTLTISSLQPEDFATYYCQQYHTYPLTFGGGTKVEIKR :: 9.4e-05
HC 1251_A06 (g)/LC 1337_A09 (g) (antibody, human IgG1, kappa, V domains shown, IgG format) VH: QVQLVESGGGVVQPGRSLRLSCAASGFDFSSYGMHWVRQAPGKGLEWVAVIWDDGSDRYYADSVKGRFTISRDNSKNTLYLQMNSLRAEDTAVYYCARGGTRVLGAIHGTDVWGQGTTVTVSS VL: DIQMTQSPSSVSASVGDRVTITCRASQGIGSWLAWYQQKPGKAPKLLIYAADRLQSGVPSRFSGSGSGTDFTLTISSLQPEDFATYYCQQYHTYPLTFGGGTKVEIKR :: 7.26e-05
